assay: Cytotoxicity against mouse RAW264.7 cells assessed as cell viability at 50 uM incubated for 24 hrs by CCK8 assay relative to control; format: toxicity, cell-based; conditions: read-out: Activity
Please use yes for viability at 24 h, 50 µM under 90% and no for everything else, ties included.

- molecular_string: "O=C(/C=C/c1c(Cl)c(O)c(O)c(O)c1Cl)c1ccco1"
  class: "no"
- molecular_string: "O=C(/C=C/c1cc(O)c(O)c(O)c1Cl)c1ccc(F)cc1"
  class: "no"
- molecular_string: "O=C(/C=C/c1c(Cl)c(O)c(O)c(O)c1Cl)c1ccc(O)cc1"
  class: "no"
- molecular_string: "O=C(/C=C/c1c(Cl)c(O)c(O)c(O)c1Cl)c1c(Cl)cc(Cl)cc1Cl"
  class: "yes"
- molecular_string: "CC(=O)Oc1c(Cl)c(/C=C/C(=O)c2ccc(F)cc2)c(Cl)c(OC(C)=O)c1OC(C)=O"
  class: "yes"
- molecular_string: "O=C(/C=C/c1c(Cl)c(O)c(O)c(O)c1Cl)c1ccccc1F"
  class: "yes"
- molecular_string: "O=C(/C=C/c1c(Cl)c(O)c(O)c(O)c1Cl)c1ccc(F)cc1F"
  class: "yes"
- molecular_string: "O=C(/C=C/c1c(Cl)c(O)c(O)c(O)c1Cl)c1ccc(Br)cc1"
  class: "yes"
- molecular_string: "O=C(/C=C/c1c(Cl)c(O)c(O)c(O)c1Cl)c1ccc(F)cc1"
  class: "no"
- molecular_string: "O=C(/C=C/c1c(Cl)c(O)c(O)c(O)c1Cl)c1cccs1"
  class: "no"
